experiment: Recovery over time from exposure to cell culture media without cells (GC-MS/MS); format: physicochemical
Kindly supply the reported Half-time values for the records listed here.
API doc: respond with a numeric literal and nothing else, no unit.

Query string: Give its Half-time value. Item: c1cc2ccc3ccc4ccc5cccc6c(c1)c2c3c4c56 [Benzo[g,h,i]perylene]
Result string: 1.63

Query string: What about this compound? c1ccc2cc3c(ccc4ccccc43)cc2c1 [Benzo[a]anthracene]
Result string: 2.255

Query string: Subsequent entry: c1ccc2c(c1)ccc1c3ccccc3ccc21
Result string: 77098

Query string: Record: c1ccc2c(c1)-c1cccc3c1c-2cc1ccccc13 [Benzo[b]fluoranthene]
Result string: 1.392

Query string: // query: c1ccc2c(c1)ccc1cc3c(ccc4ccccc43)cc12 [Dibenzo[a,h]anthracene]
Result string: 1.539

Query string: Param item: Cc1ccc2ccccc2c1
Result string: 0.5872

Query string: Repeat with c1ccc2c(c1)-c1ccc3ccc4cccc5cc-2c1c3c45 [Indeno[1,2,3-cd]pyrene]
Result string: 2.714

Query string: Can you handle c1ccc(-c2ccccc2)cc1 next?
Result string: 0.591

Query string: And c1cc2ccc3cccc4ccc(c1)c2c34 ?
Result string: 0.6521

Query string: Same question for c1cc2cccc3c4cccc5cccc(c(c1)c23)c54 please.
Result string: 1.656
